- measurement-target: CSNK1D (human) (UniProt P48730)
- Sequence (P48730 whole entry, looked up): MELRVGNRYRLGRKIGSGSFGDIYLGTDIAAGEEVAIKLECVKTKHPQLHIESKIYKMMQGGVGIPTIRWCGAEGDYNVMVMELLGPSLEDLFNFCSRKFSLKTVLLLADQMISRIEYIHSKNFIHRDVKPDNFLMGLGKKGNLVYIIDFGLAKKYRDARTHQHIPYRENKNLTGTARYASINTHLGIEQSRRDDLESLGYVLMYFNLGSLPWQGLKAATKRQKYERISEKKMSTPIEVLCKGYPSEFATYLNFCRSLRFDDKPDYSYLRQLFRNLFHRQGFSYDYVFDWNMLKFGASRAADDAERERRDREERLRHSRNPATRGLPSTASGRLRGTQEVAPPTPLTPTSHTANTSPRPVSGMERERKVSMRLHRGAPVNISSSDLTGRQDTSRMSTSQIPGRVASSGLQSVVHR
- assay-details: radiometric filter-binding kinase assay
- test-parameters: compound 0.1 µM
Measured residual activity by item
Units required after the number.

Identify the measured residual activity of "COc1ccc(-n2ncc3cnc(Nc4cc(OC)c(OC)c(OCCCN5CCN(C)CC5)c4)nc32)cc1" for CSNK1D (human) (UniProt P48730).
95%

What do you have for "COc1cc(O)c2c(c1)/C=C/C[C@H](O)[C@H](O)C(=O)/C=C\C[C@H](C)OC2=O" ?
102%

And "NC(=O)c1cc(-c2ccnc(NC3CCCCC3)c2)nc(N2CCNCC2)c1" ?
75%

Now the compound "Cc1ccc(Sc2cnc(Nc3cccc(Br)n3)s2)cc1C(=O)N1CCN(C(=O)CN)CC1"
99%

What do we get for CC1=C(CO)C(=O)O[C@@H]([C@@H](C)[C@H]2CC[C@H]3[C@@H]4C[C@H]5O[C@]56[C@@H](O)C=CC(=O)[C@]6(C)C4CC[C@]23C)C1 (stereo not given in full) ?
92%

And "Cc1ccc(-c2ccc3c(ccc4sc5c(c43)NC[C@@H](C)NC5=O)n2)cn1" ?
96%

---
Checklist item: residual activity tested on CSNK1D (human) (UniProt P48730), entry "NC1(c2ccc(-c3nc4ccn5c(=O)[nH]nc5c4cc3-c3ccccc3)cc2)CCC1" , value?
119%

Okay, and "Cc1cccc(-c2nn(C(=S)Nc3ccccc3)cc2-c2ccnc3ccccc23)n1" ?
90%

Moving on to the next compound: "NC(=O)Nc1ccc2c(c1)/C(=C/c1cc(-c3cccnc3)c[nH]1)C(=O)N2"
90%

Quick one: "CNc1nc(-c2ccc3c(N)n[nH]c3c2)cc(N2C[C@@H](C(=O)NC3CCCCC3)CC[C@H]2C)n1"
108%

Next: "Cc1cc(NC(=O)c2cccc(NC(=O)/C=C/CN(C)C)c2)ccc1Nc1nccc(-c2cccnc2)n1"
89%

Repeat with "CCc1cncnc1N1CCN(Cc2nc3cc(C(F)(F)F)ccc3[nH]2)CC1"
96%

Would you kindly repeat that for "O=C(NCCCNc1nc(Nc2cccc(CN3CCOCC3)c2)ncc1C1CC1)C1CCC1" ?
99%

Do the same for "CN(C)C/C=C/C(=O)Nc1cccc(C(=O)Nc2ccc(Nc3nccc(-c4cccnc4)n3)cc2)c1" please
63%

Query "O=C(N[C@@H](COc1ccc2[nH]c(=O)[nH]c2c1)c1ccccc1)c1cccn(Cc2ccc(F)c(F)c2)c1=O" next
103%

* * *

- measurement-target: SRPK1 (human) (UniProt Q96SB4)
- Sequence (Q96SB4 whole entry, looked up): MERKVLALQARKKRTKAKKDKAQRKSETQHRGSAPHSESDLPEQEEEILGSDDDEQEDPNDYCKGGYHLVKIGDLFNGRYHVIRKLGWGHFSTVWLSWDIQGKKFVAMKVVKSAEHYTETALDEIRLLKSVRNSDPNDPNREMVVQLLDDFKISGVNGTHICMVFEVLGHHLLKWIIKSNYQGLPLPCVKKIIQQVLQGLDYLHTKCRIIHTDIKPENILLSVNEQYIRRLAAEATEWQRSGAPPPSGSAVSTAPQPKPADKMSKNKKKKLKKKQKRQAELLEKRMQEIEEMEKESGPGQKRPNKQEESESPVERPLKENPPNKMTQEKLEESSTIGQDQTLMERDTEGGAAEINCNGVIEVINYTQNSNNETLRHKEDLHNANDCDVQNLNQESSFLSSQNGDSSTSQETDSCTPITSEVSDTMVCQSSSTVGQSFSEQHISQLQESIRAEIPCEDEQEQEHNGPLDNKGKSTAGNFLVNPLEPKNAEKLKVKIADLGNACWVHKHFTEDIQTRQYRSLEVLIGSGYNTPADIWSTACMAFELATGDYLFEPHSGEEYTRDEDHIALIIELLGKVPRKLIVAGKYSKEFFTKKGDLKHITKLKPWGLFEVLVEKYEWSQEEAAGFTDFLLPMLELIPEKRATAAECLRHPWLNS
- assay-details: radiometric filter-binding kinase assay
- test-parameters: compound 1.0 µM
// reported residual activity for each item listed
Express it in %; write the number only.

Recorded residual activity for "c1ccc2c(-c3cnn4cc(-c5ccc(N6CCNCC6)cc5)cnc34)ccnc2c1" , please?
116

And "CCn1c(-c2nonc2N)nc2cncc(CNC3CCNCC3)c21" ?
99

Here is the next molecule: "Cn1nc(Nc2ccc(F)cc2)c2c(N)ncnc21"
137

Another: "NS(=O)(=O)OC[C@@H]1C[C@@H](n2ccc3c(N[C@H]4CCc5ccccc54)ncnc32)C[C@@H]1O"
92

* * *

- measurement-target: MAPK12 (human) (UniProt P53778)
- Sequence (P53778 whole entry, looked up): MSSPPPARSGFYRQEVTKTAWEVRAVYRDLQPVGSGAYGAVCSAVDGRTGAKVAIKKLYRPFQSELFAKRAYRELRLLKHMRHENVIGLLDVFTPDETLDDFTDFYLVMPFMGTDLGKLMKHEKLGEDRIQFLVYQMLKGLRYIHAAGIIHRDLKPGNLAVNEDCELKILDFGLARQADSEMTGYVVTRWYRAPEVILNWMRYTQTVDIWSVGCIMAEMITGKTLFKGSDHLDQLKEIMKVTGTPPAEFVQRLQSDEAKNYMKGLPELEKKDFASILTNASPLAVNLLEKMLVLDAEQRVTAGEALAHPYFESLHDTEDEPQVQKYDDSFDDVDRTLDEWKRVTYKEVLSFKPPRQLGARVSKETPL
- assay-details: radiometric filter-binding kinase assay
- test-parameters: compound 0.1 µM
readout-kind: residual activity (%)
Give the value in % but do not write % after it.

Record request: residual activity value, item "NC(=O)c1cc2c(-c3cccc(-c4ccccc4)c3)cnc(N)c2s1"
93

Check COc1cc(O)c2c(c1)[C@H]1OC1C[C@H](O)[C@H](O)C(=O)/C=C\C[C@H](C)OC2=O (stereo partly specified) too.
105

Another molecule to look at: "O=C(O)c1ccc(-c2c[nH]c3ncc(-c4ccccc4)cc23)cc1C1CCCC1"
106

Entry to check: "Cc1cc(NC(=O)c2cccc(NC(=O)/C=C/CN(C)C)c2)ccc1Nc1nccc(-c2cccnc2)n1"
99

Consider next the molecule "COc1ccc(N(C(=O)Nc2c(C)cccc2C)c2cc(Nc3ccc(N4CCN(C)CC4)cc3)ncn2)c(OC)c1" in the same way.
112

Continue with "c1ccc2c(-c3cnn4cc(-c5ccc(N6CCNCC6)cc5)cnc34)ccnc2c1"
78

Same again, this time with "Cn1c(=O)c2c(ncn2C)n(C)c1=O"
97

Record: "C=CC(=O)N1CCC[C@@H](n2nc(-c3ccc(Oc4ccccc4)cc3)c3c(N)ncnc32)C1"
89

What about "NC1(c2ccc(-c3nc4ccn5c(=O)[nH]nc5c4cc3-c3ccccc3)cc2)CCC1" ?
94

Now give it for COc1ccc2c(c1)c1c3c(c4c5ccccc5n(C)c4c1n2CC(O)CN(C)C)C(=O)NC3=O (stereo unspecified) too.
99

Next:
Entry "Cc1ccc(-c2ccc3c(ccc4sc5c(c43)NC[C@@H](C)NC5=O)n2)cn1" has what residual activity?
108

# credit: the kinase profiling compilation of Christmann-Franck et al. (2016)
